Target: Ubiquitin-conjugating enzyme E2 N (Homo sapiens)
Sequence (P61088 whole entry): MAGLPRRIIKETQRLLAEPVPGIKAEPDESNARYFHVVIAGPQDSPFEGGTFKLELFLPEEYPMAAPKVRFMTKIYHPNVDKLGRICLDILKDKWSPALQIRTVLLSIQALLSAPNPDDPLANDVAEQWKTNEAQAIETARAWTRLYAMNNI
Assay type: functional
The source made the active and inactive calls.
Hello, when you answer, please use one of the following outcomes: Y for active, N for inactive

// outcome(item) with item = CCc1ccc2nc(N(CCCN(C)C)C(=O)c3ccc(C(=O)c4ccccc4)cc3)sc2c1 Y

# outcome recorded in this test, key = CCOC(=O)/C(=C\c1cccc(O)c1)c1nc(O)c2c(C)c(C)sc2n1 N

What did this assay record as the result for CCCOc1ccc(C(=O)NNC(=S)NC(=O)CC)cc1 ? Y

Please state the recorded outcome for this molecule: COc1ccc(OC)c2sc(N(CCCN(C)C)C(=O)c3ccc(S(=O)(=O)N4CCc5ccccc5C4)cc3)nc12 Y

* * *

Target: Short transient receptor potential channel 4 (Mus musculus)
Sequence (Q9QUQ5 whole entry): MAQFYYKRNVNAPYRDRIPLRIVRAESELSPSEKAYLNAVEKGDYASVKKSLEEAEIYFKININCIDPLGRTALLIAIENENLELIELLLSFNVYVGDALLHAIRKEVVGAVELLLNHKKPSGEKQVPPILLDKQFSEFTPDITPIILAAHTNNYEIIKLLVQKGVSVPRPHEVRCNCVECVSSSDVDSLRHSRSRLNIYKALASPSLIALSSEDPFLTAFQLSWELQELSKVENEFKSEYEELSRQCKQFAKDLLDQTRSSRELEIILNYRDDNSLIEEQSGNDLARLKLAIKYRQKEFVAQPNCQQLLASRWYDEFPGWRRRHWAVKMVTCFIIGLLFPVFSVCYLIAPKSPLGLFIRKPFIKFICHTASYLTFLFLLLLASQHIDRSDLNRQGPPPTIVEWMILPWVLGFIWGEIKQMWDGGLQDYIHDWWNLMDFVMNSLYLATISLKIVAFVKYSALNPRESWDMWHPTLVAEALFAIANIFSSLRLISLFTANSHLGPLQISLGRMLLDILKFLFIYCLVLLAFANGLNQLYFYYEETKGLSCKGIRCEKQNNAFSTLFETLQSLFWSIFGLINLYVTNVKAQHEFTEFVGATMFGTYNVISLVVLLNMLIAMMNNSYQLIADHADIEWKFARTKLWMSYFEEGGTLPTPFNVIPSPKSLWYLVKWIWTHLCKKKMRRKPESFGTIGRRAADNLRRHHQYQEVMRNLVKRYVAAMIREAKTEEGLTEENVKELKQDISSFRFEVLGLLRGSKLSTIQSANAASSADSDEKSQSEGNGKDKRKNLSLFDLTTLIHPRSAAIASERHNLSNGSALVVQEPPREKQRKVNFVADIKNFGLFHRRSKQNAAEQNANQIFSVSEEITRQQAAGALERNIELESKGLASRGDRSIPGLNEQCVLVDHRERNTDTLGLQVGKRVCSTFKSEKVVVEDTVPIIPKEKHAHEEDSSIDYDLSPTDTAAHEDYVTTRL
Assay: mouse TRPC4 channel inhibitors, dose response, cell-based, HEK293 TRPC4/mu-opioid, Fluo-4 calcium (AID 434942);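 also: potency of inhibitors blocking the TRPC4 calcium response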
Assay type: functional
Active and inactive are the calls of the source.
attribute-measured: EC50

Please indicate EC50 recorded for CCC1C=C(c2ccccc2)C=CN=C1N(CC)CC (stereo not drawn) 4.22 µM (active)

Hello, please tell me recorded EC50 for this one: Cc1cc(C(=O)N/N=C\c2cc(C(C)(C)C)ccc2O)[nH]n1 6.68 µM (active)

Return value of EC50 for input COc1cccc(NC(=O)CCC(=O)N2CC(C)Oc3ccc(C)cc32)c1 (stereo not drawn) , no commentary. 0.531 µM (active)

Please give the documented EC50 of CC[n+]1c(/C=C/Nc2ccccc2)oc2ccc(OC)cc21 3.35 µM (active)

Fill in reported EC50 for this entry: CCOc1ccc(Cl)cc1/C=N/O 4.22 µM (active)

State its EC50 for this compound: CC(/C=C1\SC(=S)N(C(C(=O)O)C(C)C)C1=O)=C\c1ccccc1 (stereo not drawn) 5.96 µM (active)

Give a short answer stating reported EC50 for CC(C)c1nc(CNC(=O)CC2C(=O)NCCN2Cc2ccc(F)cc2Cl)cs1 (stereo not drawn) . 1.88 µM (active)

Please report the measured EC50 for CC1CCc2c(sc(/N=C/N(C)C)c2C#N)C1 (stereo not drawn) 2.99 µM (active)

* * *

Biological target: Replicative DNA helicase DnaB (Mycobacterium tuberculosis)
Experiment: DnaB intein splicing inhibitors, dose response, biochemical, cell-free fluorescence (AID 449749)
Assay type: functional
Activity calls are given as the source filed them.
Please state which outcome applies, choosing from yes (1) for active, no (0) for inactive

Record lookup: outcome of this test for NC(=O)c1c(-c2cccs2)csc1N ? no (0)

Tell me the recorded outcome of this test for COc1ccccc1/C=N/Nc1cc(N(C)C)nc(N(C)C)n1 . no (0)

How did this test come out for O=C(N/N=C\c1ccc(-c2ccccc2[N+](=O)[O-])o1)C1COc2ccccc2O1 (stereo not given) ? yes (1)

Hi, do you know how CC1(C)CC2(C)OC(=N)C1(C#N)C2(C#N)C#N (stereo not given) came out in this test? yes (1)

Please let me know the test result on file for CC1=NN(c2ccccc2)C(=O)/C1=C\c1ccc(Oc2ccc([N+](=O)[O-])cc2[N+](=O)[O-])cc1 . yes (1)

What call does the record list for O=S(=O)(Cc1ccccc1)c1cnc2ccccc2n1 ? no (0)

Query: recorded result category for Cc1n[nH]c2c1C(c1cnn(C)c1)C(C#N)=C(N)O2 (stereo not given) in this test yes (1)

Could you please tell me the result logged for CCS(=O)(=O)C1=NN2C(=N)/C(=C\c3ccc(OC(=O)c4ccco4)cc3)C(=O)N=C2S1 in this assay? no (0)

Assay result, entry Cc1ccc(NC(=O)CSc2ncnc3ccccc23)cc1S(=O)(=O)N1CCCCCC1 — outcome? yes (1)

Per the assay record, what outcome was assigned to COc1cccc(Nc2c([N+](=O)[O-])cncc2[N+](=O)[O-])c1 ? yes (1)

Could you kindly confirm the outcome this assay logged for Cc1noc(C)c1CSCC(=O)Oc1ccc(N(C)S(=O)(=O)c2ccccc2)cc1 ? yes (1)

// return assay outcome for [O-][N+]1=c2ccc(Nc3ccccc3)cc2=NC12CCCCC2 no (0)

Check the results log: what was the call for O=C(CSc1ncnc2c1nnn2Cc1ccc(F)cc1)NCC1CCCO1 (stereo not given) ? yes (1)

Which outcome did this test record for the molecule COc1cccc(N2CC(C(=O)Nc3nnc(SCC(=O)c4ccccc4)s3)CC2=O)c1 (stereo not given) ? yes (1)

* * *

Molecular target: RNA-binding protein pos-1 (Caenorhabditis elegans, UniProt G5EF15)
Sequence (G5EF15 whole entry, the tested form may be a part): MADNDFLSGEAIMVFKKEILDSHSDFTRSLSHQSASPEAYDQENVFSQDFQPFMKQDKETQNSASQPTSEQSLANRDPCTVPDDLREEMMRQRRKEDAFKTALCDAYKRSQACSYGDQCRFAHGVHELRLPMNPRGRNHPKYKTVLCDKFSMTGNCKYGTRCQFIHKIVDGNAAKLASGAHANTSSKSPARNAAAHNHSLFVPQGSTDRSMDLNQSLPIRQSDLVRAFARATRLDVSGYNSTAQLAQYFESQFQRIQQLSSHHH
Test: inhibitors of POS-1/mex-3 RNA binding, dose response, biochemical, fluorescence polarization (AID 1964);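 also: purified POS-1 fused to maltose binding protein made in E. coli; potency of compounds blocking POS-1 binding to fluorescent RNA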
attribute-measured: EC50

Input N#CC1=C(N)OC2=C(C(=O)CCC2)C1c1cc2c(cc1Cl)OCO2 (stereo not given) , output reported EC50. > 300 µM (not active)

Note EC50 for the compound shown: COc1ccc(N2C(=O)NC(=O)/C(=C/c3ccc([N+](=O)[O-])s3)C2=O)cc1 > 300 µM (not active)

State its EC50: CCCn1c(O)c(C#N)c(C)c(CN2CCCCC2)c1=O > 300 µM (inconclusive)

# return recorded EC50 for entry COC/C=C/C1=CC2=CC(=O)C(C)(OC(=O)C3CCCC3)C(=O)C2=CO1 (stereo not given) > 300 µM (not active)

Give me measured EC50, please, for this compound: Cn1ncc(Cl)c1C(=O)N/N=C/c1cccc(OC2CSC2)c1 > 300 µM (not active)

* * *

What IC50 was measured for each of the following?
Target: DNA dC->dU-editing enzyme APOBEC-3G (Homo sapiens, UniProt Q9HC16);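 also: Dose-response counterscreen measuring inhibition of APOBEC3G DNA deaminase activity, run while confirming APOBEC3A inhibitors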
Sequence (Q9HC16 whole entry): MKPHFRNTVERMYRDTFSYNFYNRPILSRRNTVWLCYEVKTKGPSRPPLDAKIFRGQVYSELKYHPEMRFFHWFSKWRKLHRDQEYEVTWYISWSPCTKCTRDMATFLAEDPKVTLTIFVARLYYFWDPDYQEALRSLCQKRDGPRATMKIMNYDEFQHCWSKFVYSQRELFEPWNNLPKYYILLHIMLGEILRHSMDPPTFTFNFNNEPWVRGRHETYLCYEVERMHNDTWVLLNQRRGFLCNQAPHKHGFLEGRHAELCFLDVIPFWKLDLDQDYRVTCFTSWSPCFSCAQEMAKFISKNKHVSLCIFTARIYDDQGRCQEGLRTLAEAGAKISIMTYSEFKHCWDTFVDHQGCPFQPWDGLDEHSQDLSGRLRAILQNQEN
Type: functional
Activity calls are given as the source filed them.

Lab note: DNA dC->dU-editing enzyme APOBEC-3G (Homo sapiens, UniProt Q9HC16) assay, enter IC50 for COc1ccc(NC(=O)COc2ccc(/C=C/c3cc[n+](C)cc3)cc2OC)cc1 here 3.92 µM (active)

Print DNA dC->dU-editing enzyme APOBEC-3G (Homo sapiens, UniProt Q9HC16) IC50 for O=C(CSc1nc2sccc2c(=O)[nH]1)N1CCN(c2ccccc2)CC1 . 9.27 µM (active)

Give the observed IC50 of CCc1noc(C)c1C(=O)Nc1cc(S(=O)(=O)N2CCOCC2)ccc1N1CCN(CC)CC1 for DNA dC->dU-editing enzyme APOBEC-3G (Homo sapiens, UniProt Q9HC16). 5.53 µM (active)

Give the observed IC50 of Cc1ccc(NC(=O)C2CCN(C(=O)c3cccs3)CC2)c(C)c1 for DNA dC->dU-editing enzyme APOBEC-3G (Homo sapiens, UniProt Q9HC16). 6.56 µM (active)

Look up and report IC50, with DNA dC->dU-editing enzyme APOBEC-3G (Homo sapiens, UniProt Q9HC16) as system, for C[n+]1cc(C(=O)N2CCCCC2)ccc1/C=C/c1c[nH]c2ccccc12 2.7 µM (active)

* * *

Test system: Streptococcus
Test: Group A Streptococcus viability loss, dose response, counter-screen for streptokinase expression inhibitor project, luminescence, BacTiterGlo (AID 1915);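 also: potency for reduction of bacterial viability or growth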
Assay type: functional, organism-based
Activity calls are given as the source filed them.
attribute-measured: EC50

State the measured EC50 (Streptococcus) of Cc1[nH]c2ccccc2c1C(c1ccccn1)c1c(C)[nH]c2ccccc12 12.1 µM (active)

GET EC50 | system: Streptococcus | item: COc1cccc(/C=N/Nc2ccc([N+](=O)[O-])cn2)c1O 1.65 µM (active)

Fill in EC50 for N=c1c(-c2nc3ccccc3[nH]2)cc(C(=O)c2cccs2)nn1-c1ccccc1 tested with Streptococcus. 5.63 µM (active)

Identify measured EC50 obtained with Streptococcus for COc1ccc(NP(=O)(Oc2ccc(Cl)cc2)Oc2ccc(Cl)cc2)cc1OC . 16.3 µM (active)

Print Streptococcus EC50 for COc1cccc(COC(=O)c2sc3nc4n(c(=O)c3c2C)CCC4)c1OC . 8.48 µM (active)

Give the observed EC50 of Cc1cc(NC(=O)c2sccc2C)n(-c2nc3ccccc3[nH]2)n1 for Streptococcus. 5.49 µM (active)

Output reported EC50 of the compound CCCCCCCCCc1nc2sc3c(c2c(=O)n1NC(=O)c1ccc([N+](=O)[O-])cc1)CC(C)(C)OC3 on Streptococcus. 39.8 µM (active)

Find EC50 for CCc1nc2c3cnn(-c4cc(Cl)ccc4C)c3ncn2n1 on Streptococcus and write it down. > 150 µM (not active)

Recall the reported EC50 of COCCCN=C(S)NN=C(S)Nc1cccc(Cl)c1 when tested on Streptococcus. > 150 µM (not active)

* * *

Assignment: determine reported EC50 for the given compounds.
Target: Voltage-dependent T-type calcium channel subunit alpha-1H (Homo sapiens);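 also: channel activity triggered by adding a high calcium stimulation buffer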
Sequence (O95180 whole entry): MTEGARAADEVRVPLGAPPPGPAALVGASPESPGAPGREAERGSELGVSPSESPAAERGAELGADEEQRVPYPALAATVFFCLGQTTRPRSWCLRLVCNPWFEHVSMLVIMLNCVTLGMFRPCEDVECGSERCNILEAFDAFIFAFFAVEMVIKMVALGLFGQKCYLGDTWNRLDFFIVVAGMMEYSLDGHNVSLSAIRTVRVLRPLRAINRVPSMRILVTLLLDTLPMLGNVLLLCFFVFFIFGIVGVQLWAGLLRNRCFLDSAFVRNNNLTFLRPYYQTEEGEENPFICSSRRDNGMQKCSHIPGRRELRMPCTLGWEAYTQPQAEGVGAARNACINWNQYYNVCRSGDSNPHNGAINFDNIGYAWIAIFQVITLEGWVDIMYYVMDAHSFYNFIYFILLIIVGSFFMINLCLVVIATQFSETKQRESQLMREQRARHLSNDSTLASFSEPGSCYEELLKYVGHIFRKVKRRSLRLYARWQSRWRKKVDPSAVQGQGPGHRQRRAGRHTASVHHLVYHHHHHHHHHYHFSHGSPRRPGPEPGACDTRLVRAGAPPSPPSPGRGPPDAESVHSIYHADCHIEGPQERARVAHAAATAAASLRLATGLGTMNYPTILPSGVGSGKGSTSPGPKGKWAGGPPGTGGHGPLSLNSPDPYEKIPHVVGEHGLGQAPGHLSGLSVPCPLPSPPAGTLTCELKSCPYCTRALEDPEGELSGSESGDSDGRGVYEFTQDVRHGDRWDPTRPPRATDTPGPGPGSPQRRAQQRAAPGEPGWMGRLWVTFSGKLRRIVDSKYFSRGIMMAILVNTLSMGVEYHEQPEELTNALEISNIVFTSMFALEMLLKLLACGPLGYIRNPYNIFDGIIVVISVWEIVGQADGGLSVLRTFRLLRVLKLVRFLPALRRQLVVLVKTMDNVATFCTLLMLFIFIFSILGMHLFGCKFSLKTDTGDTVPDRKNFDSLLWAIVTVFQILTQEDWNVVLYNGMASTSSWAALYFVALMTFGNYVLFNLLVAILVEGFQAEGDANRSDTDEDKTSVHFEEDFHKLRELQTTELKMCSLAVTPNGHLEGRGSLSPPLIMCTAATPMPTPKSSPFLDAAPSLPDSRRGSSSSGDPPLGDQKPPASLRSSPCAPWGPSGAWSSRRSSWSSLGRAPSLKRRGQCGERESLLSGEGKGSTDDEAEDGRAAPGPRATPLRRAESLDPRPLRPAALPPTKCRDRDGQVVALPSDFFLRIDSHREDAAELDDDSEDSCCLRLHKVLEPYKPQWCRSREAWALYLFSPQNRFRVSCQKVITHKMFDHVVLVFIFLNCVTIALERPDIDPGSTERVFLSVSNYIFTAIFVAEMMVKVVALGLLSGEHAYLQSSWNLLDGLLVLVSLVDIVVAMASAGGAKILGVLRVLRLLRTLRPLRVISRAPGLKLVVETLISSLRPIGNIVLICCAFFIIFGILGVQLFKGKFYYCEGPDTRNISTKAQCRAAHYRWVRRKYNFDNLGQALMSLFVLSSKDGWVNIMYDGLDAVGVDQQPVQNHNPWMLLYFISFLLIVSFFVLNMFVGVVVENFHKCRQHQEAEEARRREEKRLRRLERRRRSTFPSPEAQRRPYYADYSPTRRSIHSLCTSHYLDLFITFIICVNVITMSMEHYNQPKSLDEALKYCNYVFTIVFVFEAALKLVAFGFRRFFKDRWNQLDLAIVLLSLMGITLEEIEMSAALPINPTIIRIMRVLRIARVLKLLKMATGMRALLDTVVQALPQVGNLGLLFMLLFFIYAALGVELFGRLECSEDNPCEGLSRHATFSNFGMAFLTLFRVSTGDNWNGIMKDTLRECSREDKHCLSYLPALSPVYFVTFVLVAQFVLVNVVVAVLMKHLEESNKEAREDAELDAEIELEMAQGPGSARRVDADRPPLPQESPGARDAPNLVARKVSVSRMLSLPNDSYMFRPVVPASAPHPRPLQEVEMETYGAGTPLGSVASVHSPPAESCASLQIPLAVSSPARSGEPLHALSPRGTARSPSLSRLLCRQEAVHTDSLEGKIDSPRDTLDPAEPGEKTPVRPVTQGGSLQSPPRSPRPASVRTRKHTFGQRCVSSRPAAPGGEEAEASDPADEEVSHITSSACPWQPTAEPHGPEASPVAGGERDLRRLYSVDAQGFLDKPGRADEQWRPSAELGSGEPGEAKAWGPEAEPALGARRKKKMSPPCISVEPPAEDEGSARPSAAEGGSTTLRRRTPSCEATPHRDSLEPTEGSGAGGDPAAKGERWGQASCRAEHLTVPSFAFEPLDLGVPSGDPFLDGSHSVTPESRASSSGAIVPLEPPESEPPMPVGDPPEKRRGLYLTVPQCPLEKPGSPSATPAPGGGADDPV
Format: functional
Calls of active or inactive are those of the source.

Give the measured EC50 for O=C(CSc1nnc(-c2ccc(Cl)cc2)n1Cc1ccco1)NCc1ccc2c(c1)OCO2 1.11 µM (active)

Return EC50 for the following compound: Cc1cccc(C)c1NC(=O)CSc1nnc(-c2ccccc2)n1Cc1ccc2c(c1)OCO2 5.4 µM (active)

For the compound O=S(=O)(c1ccc(Oc2ccc(Cl)cc2)c(S(=O)(=O)N2CCCCC2)c1)N1CCCCC1 , report EC50. 2.28 µM (active)

Read off the recorded EC50 for Cc1c(Cl)cccc1NC(=O)c1nc(C)n(-c2cc(OC(C)C)c(Cl)cc2Cl)n1 7.19 µM (active)

Note down EC50 recorded for CC(Sc1nnnn1-c1ccccc1)C(=O)Nc1ccc(Cl)cn1 (stereo unspecified) 6.14 µM (active)

Look up and state reported EC50 for C=CCn1cc(C(=O)NCc2ccco2)c(=O)c2cc(S(=O)(=O)N3CCCCCC3)ccc21 6.32 µM (active)
